- TARGET_SYSTEM: Strychnine-Insensitive [^3 H]Glycine Binding Sites, washed membranes of rat brain cortex (Rattus norvegicus)
- Construct: washed membranes of rat brain cortex; from tissue; host or cells: brain cortex membranes, male Sprague-Dawley rats (150-175 g)
- PROCEDURE_SUMMARY: biochemical
- RECORDED_CONDITIONS: 1 h, read-out: [^3 H]-Glycine Binding % DSPL10 @ 10 μM, 10 μM test compound, 60 minutes on ice
I'd be grateful if you could share measured inhibition at 10 µM for these entries.
Numbers only, in %.

[[record]]
compound = "Clc1cc2ncc3nccn3c2cc1Cl [Compound 36, 7,8-dichloroimidazo[1,2-a]quinoxaline]"
parameter_measured = "inhibition at 10 µM"
readout_value = 88

[[record]]
compound = "CCCc1nnc2cnc3cc(Cl)c(Cl)cc3n12"
parameter_measured = "inhibition at 10 µM"
readout_value = 2

[[record]]
compound = "CCc1nnc2c(=O)[nH]c3cc(Cl)c(Cl)cc3n12"
parameter_measured = "inhibition at 10 µM"
readout_value = 53

[[record]]
compound = "O=c1[nH]c2cc(C(F)(F)F)ccc2c2ccnn12"
parameter_measured = "inhibition at 10 µM"
readout_value = 51

[[record]]
compound = "Brc1ccc2ncc3nncn3c2c1 [Compound 15, 8-bromo-1,2,4-triazolo[4,3-a]quinoxaline]"
parameter_measured = "inhibition at 10 µM"
readout_value = -3

[[record]]
compound = "O=c1[nH]c2cc(Cl)c(Cl)cc2n2c(C(F)(F)F)nnc12"
parameter_measured = "inhibition at 10 µM"
readout_value = 40

[[record]]
compound = "O=c1[nH]c2ccc(Cl)cc2c2nc3ccccc3n12"
parameter_measured = "inhibition at 10 µM"
readout_value = 3

[[record]]
compound = "CCc1nnc2cnc3cc(Cl)c(Cl)cc3n12"
parameter_measured = "inhibition at 10 µM"
readout_value = 63


Hi! Can you tell me inhibition at 10 µM for each of these compounds?
1. O=c1[nH]c2cc([N+](=O)[O-])ccc2n2cnnc12
2. FC(F)(F)c1nnc2cnc3cc(Cl)c(Cl)cc3n12
3. CCCc1nnc2c(=O)[nH]c3cc(Cl)c(Cl)cc3n12
4. O=c1[nH]c2ccc(Cl)cc2c2ccnn12
5. [N-]=[N+]=Nc1cc2c(cc1F)[nH]c(=O)c1nnnn12
6. O=c1[nH]c2c(Cl)cccc2c2ccnn12

Reply:
1: 52; 2: -6; 3: 75; 4: 5; 5: 5; 6: 0

Hi! Can you tell me inhibition at 10 µM for each of these compounds?
1. CCCCc1nnc2c(=O)[nH]c3cc(Cl)c(Cl)cc3n12
2. O=[N+]([O-])c1ccc2c(c1)ncc1nncn12 [Compound 16, 7-nitro-1,2,4-triazolo[4,3-a]quinoxaline]
3. O=c1[nH]c2ccc(Br)cc2n2nnnc12

Reply:
[60, -5, 6]

* * *

I'd be grateful if you could share measured AMPA % DSPL @ 10 μM for these entries.
- Test system: AMPA receptor ([^3 H]AMPA binding, crude membranes of rat forebrain)
- PROCEDURE_SUMMARY: [^3 H]-AMPA displacement, EAA receptor binding
- RECORDED_CONDITIONS: 10 μM test compound, [^3 H]AMPA 5 nM, 100 mM KSCN
Give bare numbers, in %.

Worked set:
[[record]]
molecule = "CCCc1nnc2cnc3cc(Cl)c(Cl)cc3n12"
readout_value = -1.6

[[record]]
molecule = "O=c1[nH]c2ccc([N+](=O)[O-])cc2n2nnnc12"
readout_value = 0.7

[[record]]
molecule = "Clc1cc2ncc3nnc(-c4ccccc4)n3c2cc1Cl"
readout_value = 1.7

[[record]]
molecule = "Brc1ccc2ncc3nncn3c2c1 [Compound 15, 8-bromo-1,2,4-triazolo[4,3-a]quinoxaline]"
readout_value = 1.6

[[record]]
molecule = "O=c1[nH]c2ccc(Cl)cc2c2ccnn12"
readout_value = 23.1


Hi! Can you tell me AMPA % DSPL @ 10 μM for each of these molecules?
1. CCc1nnc2cnc3cc(Cl)c(Cl)cc3n12
2. O=[N+]([O-])c1ccc2c(c1)ncc1nncn12 [Compound 16, 7-nitro-1,2,4-triazolo[4,3-a]quinoxaline]
3. O=c1[nH]c2ccc(Br)cc2c2ccnn12
4. O=c1[nH]c2ccc(Cl)cc2c2nc3ccccc3n12

Reply:
[7.9, 1.7, 20.7, 4.1]

Hi! Can you tell me AMPA % DSPL @ 10 μM for each of these molecules?
1. [N-]=[N+]=Nc1cc2c(cc1F)[nH]c(=O)c1nnnn12
2. O=c1[nH]c2cc(Cl)c(Cl)cc2n2c(-c3ccccc3)nnc12
3. O=c1[nH]c2cc(Cl)c(Cl)cc2n2nnnc12 [Compound 27a]
4. Clc1cc2ncc3nccn3c2cc1Cl [Compound 36, 7,8-dichloroimidazo[1,2-a]quinoxaline]

Reply:
1.7
3.6
38
53.3

Hi! Can you tell me AMPA % DSPL @ 10 μM for each of these molecules?
1. O=c1[nH]c2c(Cl)cc(Cl)cc2c2ccnn12
2. Cc1cc2c3ccccc3[nH]c(=O)n2n1

Reply:
1. 5.1
2. 0.2

* * *

- TARGET_SYSTEM: Strychnine-Insensitive [^3 H]Glycine Binding Sites, washed membranes of rat brain cortex (Rattus norvegicus)
- Construct: washed membranes of rat brain cortex; from tissue; host or cells: brain cortex membranes, male Sprague-Dawley rats (150-175 g)
- PROCEDURE_SUMMARY: biochemical
- RECORDED_CONDITIONS: 1 h, read-out: [^3 H]-Glycine Binding % DSPL10 @ 10 μM, 10 μM test compound, 60 minutes on ice
- Protocol: Referring to Table IV, there are shown the results obtained in testing a representative number of these compounds. In Table IV, the activity of the compounds for EAA receptor binding is indicated. Compounds were evaluated for their ability to displace [^3 H]-CGS191755, [^3 H]-glycine, [^3 H]-AMPA and [^3 H]-kainate at a screening concentration of 10 μM. […]
I'd be grateful if you could share measured inhibition at 10 µM for these entries.
One number for each entry, in %.

Worked set:
[[record]]
compound = "Cc1nnc2c(=O)[nH]c3cc(Cl)c(Cl)cc3n12"
readout_value = 18

[[record]]
compound = "O=c1[nH]c2cc(Cl)ccc2c2ccnn12"
readout_value = 42

[[record]]
compound = "O=c1[nH]c2cc(Cl)c(Cl)cc2n2nnnc12 [Compound 27a]"
readout_value = 37

[[record]]
compound = "O=c1[nH]c2cc([N+](=O)[O-])c([N+](=O)[O-])cc2n2cnnc12"
readout_value = 50


Hi! Can you tell me inhibition at 10 µM for each of these compounds?
1. O=c1[nH]c2ccc(Br)cc2c2ccnn12
2. O=c1[nH]c2cc([N+](=O)[O-])ccc2n2nnnc12
3. O=c1[nH]c2cc(Cl)cc(Cl)c2n2cnnc12 [Compound 14a]
4. O=c1[nH]c2c(Cl)cc(Cl)cc2c2ccnn12
5. O=c1[nH]c2cc(Cl)c(Cl)cc2n2c(-c3ccccc3)nnc12
6. O=c1[nH]c2ccc([N+](=O)[O-])cc2n2nnnc12

Reply:
1: 4; 2: 2; 3: 87; 4: -3; 5: -1; 6: 0

* * *

I'd be grateful if you could share measured KA % DSPL @ 10 μM for these entries.
- Tested on: kainate (KA) receptor ([^3 H]Kainate binding, washed synaptosomal membranes from the rat forebrain)
- PROCEDURE_SUMMARY: [^3 H]-kainate displacement, EAA receptor binding
- RECORDED_CONDITIONS: 10 μM test compound, [^3 H]Kainate 5 nM, pH 7.4, 30 min
Numbers only, in %.

Worked set:
[[record]]
smiles_entry = "CCCCc1nnc2cnc3cc(Cl)c(Cl)cc3n12"
parameter_measured = "KA % DSPL @ 10 μM"
readout_value = -6.4

[[record]]
smiles_entry = "Cc1nnc2c(=O)[nH]c3cc(Cl)c(Cl)cc3n12"
parameter_measured = "KA % DSPL @ 10 μM"
readout_value = 28.0

[[record]]
smiles_entry = "O=c1[nH]c2cc([N+](=O)[O-])ccc2n2nnnc12"
parameter_measured = "KA % DSPL @ 10 μM"
readout_value = 2.8

[[record]]
smiles_entry = "O=c1[nH]c2ccc(Cl)cc2c2nc3ccccc3n12"
parameter_measured = "KA % DSPL @ 10 μM"
readout_value = -0.8


Could you now consider this next compound?
Task item: For `O=c1[nH]c2c(Cl)cc(Cl)cc2c2ccnn12` , what is its reported KA % DSPL @ 10 μM?
Reply: 7.4

* * *

- Tested on: kainate (KA) receptor ([^3 H]Kainate binding, washed synaptosomal membranes from the rat forebrain)
- PROCEDURE_SUMMARY: [^3 H]-kainate displacement, EAA receptor binding
- RECORDED_CONDITIONS: 10 μM test compound, [^3 H]Kainate 5 nM, pH 7.4, 30 min
I'd be grateful if you could share measured KA % DSPL @ 10 μM for these entries.
Answers are plain numbers, in %.

[[record]]
smiles_entry = "CCCc1nnc2c(=O)[nH]c3cc(Cl)c(Cl)cc3n12"
readout_value = 32.1

[[record]]
smiles_entry = "[N-]=[N+]=Nc1cc2c(cc1F)[nH]c(=O)c1nnnn12"
readout_value = 2.5


Could you now consider this next compound?
Task item: For `O=c1[nH]c2cc(Cl)c(Cl)cc2c2ccnn12` , what is its reported KA % DSPL @ 10 μM?
Reply: -0.1

FYI, the data here is from patent US5196421A.
